molecular target: Casein kinase II subunit alpha' (Homo sapiens, UniProt P19784); further: in the data inactive means no Kd found up to 30 µM
Sequence (P19784 whole entry): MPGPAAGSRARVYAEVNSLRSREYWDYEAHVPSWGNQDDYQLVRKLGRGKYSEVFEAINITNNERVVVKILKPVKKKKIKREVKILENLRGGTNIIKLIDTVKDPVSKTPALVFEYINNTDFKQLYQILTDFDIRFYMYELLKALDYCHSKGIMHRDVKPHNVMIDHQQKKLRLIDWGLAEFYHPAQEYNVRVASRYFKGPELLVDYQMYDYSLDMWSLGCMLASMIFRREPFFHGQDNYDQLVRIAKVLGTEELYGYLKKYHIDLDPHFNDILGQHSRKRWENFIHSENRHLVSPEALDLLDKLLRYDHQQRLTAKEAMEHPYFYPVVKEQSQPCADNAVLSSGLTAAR
Active and inactive are the calls of the source.
// one of 1 (yes) (active), 0 (no) (inactive), no free text

Worked examples follow.
{"columns": ["COMPOUND_SMILES", "TARGET_OR_TEST_SYSTEM", "DISCRETE_LABEL"],
 "data": [
  ["C=CC(=O)Nc1cccc(Nc2nc(Nc3ccc(N4CCN(C(C)=O)CC4)cc3OC)ncc2C(F)(F)F)c1", "Casein kinase II subunit alpha' (Homo sapiens, UniProt P19784)", "0 (no)"],
  ["Cc1ccc(C(=O)Nc2ccc(Oc3cc4cnn(C)c4cc3-c3cn[nH]c3)c(F)c2)c(=O)n1-c1ccc(F)cc1", "Casein kinase II subunit alpha' (Homo sapiens, UniProt P19784)", "0 (no)"],
  ["N#CCNC(=O)c1ccc(-c2ccnc(Nc3ccc(N4CCOCC4)cc3)n2)cc1", "Casein kinase II subunit alpha' (Homo sapiens, UniProt P19784)", "1 (yes)"],
  ["CC[C@@](C)(Nc1ccnc(-c2c[nH]c3ncccc23)n1)C(=O)NCC(F)(F)F", "Casein kinase II subunit alpha' (Homo sapiens, UniProt P19784)", "1 (yes)"]
]}

Prompt: Test call, this compound: COc1cc(Nc2ncc(F)c(Nc3ccc4c(n3)N(COP(=O)(O)O)C(=O)C(C)(C)O4)n2)cc(OC)c1OC
Response: 0 (no)

Prompt: Test call, this compound: Cc1cc(Nc2nc(N[C@@H](C)c3ncc(F)cn3)ncc2Cl)n[nH]1
Response: 1 (yes)

Prompt: Test call, this compound: C[C@@H]1COC(Nc2ccc3ncnc(Nc4ccc(OCc5nccs5)c(Cl)c4)c3c2)=N1
Response: 0 (no)

Prompt: Test call, this compound: O=C(Nc1ccc(OC(F)(F)F)cc1)c1sccc1NCc1ccnc2ccccc12
Response: 0 (no)

* * *

molecular target: Putative heat shock protein HSP 90-beta 2 (Homo sapiens, UniProt Q58FF8); further: in the data inactive means no Kd found up to 30 µM
Sequence (Q58FF8 whole entry): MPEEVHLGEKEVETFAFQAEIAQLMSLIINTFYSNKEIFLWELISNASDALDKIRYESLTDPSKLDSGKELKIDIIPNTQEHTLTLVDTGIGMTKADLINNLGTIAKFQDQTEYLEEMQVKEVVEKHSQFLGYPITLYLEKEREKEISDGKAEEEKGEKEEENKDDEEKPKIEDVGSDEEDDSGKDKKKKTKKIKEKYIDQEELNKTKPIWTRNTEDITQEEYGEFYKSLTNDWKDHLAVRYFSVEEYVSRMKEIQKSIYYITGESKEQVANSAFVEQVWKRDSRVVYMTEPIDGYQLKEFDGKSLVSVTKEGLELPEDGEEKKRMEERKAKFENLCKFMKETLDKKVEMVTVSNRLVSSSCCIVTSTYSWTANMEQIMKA
Active and inactive are the calls of the source.
// Kd lookup, one value per entry

{"columns": ["COMPOUND_SMILES", "REPORTED_MEASUREMENT"],
 "data": [
  ["Cn1cnc2c(F)c(Nc3ccc(Br)cc3Cl)c(C(=O)NOCCO)cc21", "> 30 µM (inactive)"],
  ["NC(=O)c1ccc(N(C(N)=O)c2c(F)cccc2F)nc1-c1ccc(F)cc1F", "> 30 µM (inactive)"],
  ["COc1cc(F)c(F)c(Nc2ccc(I)cc2F)c1NS(=O)(=O)C1(C[C@H](O)CO)CC1", "> 30 µM (inactive)"]
]}

Turning now to a further record.
Prompt: Any idea what Kd came out for CNC(=O)c1cc(COc2nnc(Nc3ccc(Cl)cc3)c3ccoc23)ccn1 on Putative heat shock protein HSP 90-beta 2 (Homo sapiens, UniProt Q58FF8)?
Response: > 30 µM (inactive)

* * *

Active and inactive are the calls of the source.
Quick record of Kd values for Focal adhesion kinase 1 (Homo sapiens).

Some compounds with known Kd results, for comparison:
{"columns": ["COMPOUND", "REPORTED_MEASUREMENT"],
 "data": [
  ["COc1cc2nccc(Oc3ccc(NC(=O)C4(C(=O)Nc5ccc(F)cc5)CC4)cc3)c2cc1OC [CABOZANTINIB]", "> 30 µM (inactive)"],
  ["Cc1ccc(C(=O)Nc2ccc(Oc3cc4cnn(C)c4cc3-c3cn[nH]c3)c(F)c2)c(=O)n1-c1ccc(F)cc1", "> 30 µM (inactive)"]
]}

Prompt: Any idea what Kd came out for Cn1c(=O)c(F)c(Nc2ccc(I)cc2F)c2c(=O)n(C[C@@H](O)CO)cnc21 on Focal adhesion kinase 1 (Homo sapiens)?
Response: > 30 µM (inactive)
